Source listed as the supplement of paper PMC6757056.

B1: library; a variant is named by its letters at N, in order (parent)
chain: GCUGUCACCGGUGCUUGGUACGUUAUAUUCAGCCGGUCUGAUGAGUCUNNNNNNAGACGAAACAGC

Variants of: B1
Test: normalized RNA/DNA level with ligand (relative to sTRSVctl = 100) (log10 (% of sTRSVctl)); HEK293T overexpressing SLC46A1; ligand concentration (+) RNA-Seq: 6 mM; higher = less ribozyme self-cleavage, higher mRNA level
Settings: with (6R,S)-folinic acid; ligand present: yes
measured endpoint: normalized RNA/DNA level with ligand (log10)
The reply should be a number, written without any unit.

{"columns": ["alteration", "endpoint value"],
 "data": [
  ["AUCAGU", 2]
]}

Can you share its normalized RNA/DNA level with ligand (log10)? I mean this variant: AUCGCC 2

Can you share its normalized RNA/DNA level with ligand (log10)? I mean this variant: UUUAGU 1.99

Can you share its normalized RNA/DNA level with ligand (log10)? I mean this variant: GACCCC 2

Can you share its normalized RNA/DNA level with ligand (log10)? I mean this variant: GGUCAU 2.01

Can you share its normalized RNA/DNA level with ligand (log10)? I mean this variant: CGAGAC 1.97

Can you share its normalized RNA/DNA level with ligand (log10)? I mean this variant: AGCUAC 2.01

Can you share its normalized RNA/DNA level with ligand (log10)? I mean this variant: AUACGA 2.01

Can you share its normalized RNA/DNA level with ligand (log10)? I mean this variant: UAGUCG 1.99

Can you share its normalized RNA/DNA level with ligand (log10)? I mean this variant: GCGGAG 2.01

Can you share its normalized RNA/DNA level with ligand (log10)? I mean this variant: CAAAGG 2

Can you share its normalized RNA/DNA level with ligand (log10)? I mean this variant: AAACUA 2

Can you share its normalized RNA/DNA level with ligand (log10)? I mean this variant: ACCAUA 2.01

Can you share its normalized RNA/DNA level with ligand (log10)? I mean this variant: CCCUGG 2.02

Can you share its normalized RNA/DNA level with ligand (log10)? I mean this variant: ACGUCC 2

Can you share its normalized RNA/DNA level with ligand (log10)? I mean this variant: GUGCAC 2

Can you share its normalized RNA/DNA level with ligand (log10)? I mean this variant: UCAACC 1.98

Can you share its normalized RNA/DNA level with ligand (log10)? I mean this variant: CCACCG 2.01

Can you share its normalized RNA/DNA level with ligand (log10)? I mean this variant: GCUAGU 2.01
